Test: Drying transformation relationship of Form A-F (vacuum drying, XRPD)
Conditions: 60-80° C. vacuum drying, 24 hours
experimental_readout: XRPD results

COc1ncc(F)cc1CNc1ccc(Cc2c[nH]c3ncc(C)cc23)c(F)n1 [Form C] ... Form A
COc1ncc(F)cc1CNc1ccc(Cc2c[nH]c3ncc(C)cc23)c(F)n1 [Form E] ... Form A + B
COc1ncc(F)cc1CNc1ccc(Cc2c[nH]c3ncc(C)cc23)c(F)n1 [Form D] ... Form A
COc1ncc(F)cc1CNc1ccc(Cc2c[nH]c3ncc(C)cc23)c(F)n1 [Form F] ... Form A + B

====

Test: Drying transformation relationship of Form A-F (vacuum drying, XRPD)
Settings: dried at high temperatures, solvent removed
experimental_readout: Stability / conversion of crystal form on drying

COc1ncc(F)cc1CNc1ccc(Cc2c[nH]c3ncc(C)cc23)c(F)n1 [Form B] ... remain stable
COc1ncc(F)cc1CNc1ccc(Cc2c[nH]c3ncc(C)cc23)c(F)n1 [Form A] ... remain stable
